Biological target: human ApoC3 (human)
Sequence (chain, as listed by the source): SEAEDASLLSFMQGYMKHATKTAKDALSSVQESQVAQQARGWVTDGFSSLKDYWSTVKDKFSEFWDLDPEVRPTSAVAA
Test: SPR pH 7.4, antibody immobilized
// reported Kd per item

Worked set:
1. mAb11 (antibody, V domains shown) VH: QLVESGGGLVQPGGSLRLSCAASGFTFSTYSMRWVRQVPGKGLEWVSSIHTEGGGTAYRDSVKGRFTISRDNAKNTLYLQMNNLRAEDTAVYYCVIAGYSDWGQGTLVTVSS VL: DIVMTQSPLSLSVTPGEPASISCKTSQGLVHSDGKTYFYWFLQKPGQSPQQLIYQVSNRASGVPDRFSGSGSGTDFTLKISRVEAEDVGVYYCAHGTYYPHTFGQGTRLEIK    129 nM
2. mAb12 (antibody, V domains shown) VH: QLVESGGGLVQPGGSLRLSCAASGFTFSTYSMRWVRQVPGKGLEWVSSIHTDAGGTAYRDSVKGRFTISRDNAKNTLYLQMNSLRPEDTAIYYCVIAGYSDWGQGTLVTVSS VL: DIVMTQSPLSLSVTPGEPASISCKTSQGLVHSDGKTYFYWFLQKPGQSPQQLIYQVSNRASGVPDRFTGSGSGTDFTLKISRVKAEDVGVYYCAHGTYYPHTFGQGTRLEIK    321 nM
3. mAb7 (antibody, V domains shown) VH: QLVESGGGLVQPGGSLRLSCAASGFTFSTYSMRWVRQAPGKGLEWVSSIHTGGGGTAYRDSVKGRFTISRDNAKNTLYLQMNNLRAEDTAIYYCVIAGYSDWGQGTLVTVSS VL: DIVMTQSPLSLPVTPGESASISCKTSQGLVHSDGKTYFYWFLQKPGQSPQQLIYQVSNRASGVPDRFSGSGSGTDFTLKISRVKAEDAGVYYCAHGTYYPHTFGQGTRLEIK    247 nM
4. 5E5VH5_VL8 IgG1 (antibody, V domains shown) VH: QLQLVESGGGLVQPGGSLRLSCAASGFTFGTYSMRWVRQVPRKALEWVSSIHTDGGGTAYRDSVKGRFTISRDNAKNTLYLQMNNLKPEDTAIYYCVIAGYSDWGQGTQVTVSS VL: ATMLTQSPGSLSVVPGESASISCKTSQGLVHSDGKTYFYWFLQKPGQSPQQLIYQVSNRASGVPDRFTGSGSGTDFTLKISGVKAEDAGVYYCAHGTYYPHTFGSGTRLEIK    298 nM

Next:
*Q* State its Kd: mAb17 (antibody, V domains shown) VH: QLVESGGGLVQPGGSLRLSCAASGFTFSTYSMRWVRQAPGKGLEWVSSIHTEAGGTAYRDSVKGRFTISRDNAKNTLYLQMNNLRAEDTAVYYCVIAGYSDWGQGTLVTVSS VL: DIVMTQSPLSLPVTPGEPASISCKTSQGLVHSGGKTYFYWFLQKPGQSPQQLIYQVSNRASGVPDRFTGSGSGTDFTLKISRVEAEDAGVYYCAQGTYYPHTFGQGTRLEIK
*A* 62.4 nM
